I'd appreciate it if you could supply microsomal CLint at 1 μM values for the items below.
experimentalDetails: in vitro
cond: mouse, microsomes, pH 7.4
Number only, in µL/min/mg; omit the unit.

Kindly note the recorded microsomal CLint at 1 μM for COc1cccc(-c2ccc(C(=O)N3C[C@H]4[C@@H]([C@H]3C(=O)N[C@H](C#N)C[C@@H]3CCNC3=O)C4(C)C)c(Cl)c2)c1 [22f] , which is 450

Item: COc1ccc(-c2ccc(C(=O)N3C[C@H]4[C@@H]([C@H]3C(=O)N[C@H](C#N)C[C@@H]3CCNC3=O)C4(C)C)c(Cl)c2)cc1 [22e] | microsomal CLint at 1 μM: 450

// microsomal CLint at 1 μM value for COc1cccc(-c2ccc(C(=O)N[C@@H](CC(C)C)C(=O)N[C@H](C#N)C[C@@H]3CCNC3=O)c(Cl)c2)c1 [18n] : 111

###

Please go through the items and note down their IC50.
systemTested: Human Recombinant Cathepsin B (Homo sapiens, UniProt P07858)
experimentalDetails: Cathepsin selectivity screening, Cat B (Z-Phe-Arg-AMC)
Format: biochemical
cond: Z-Phe-Arg-AMC substrate; Table 5; read-out: IC50 (μM) CatB
The response must be a number in µM with no trailing unit.

The observed IC50 for COc1ccc(-c2ccc(C(=O)N[C@@H](CC3CCCCC3)C(=O)N[C@H](C#N)C[C@@H]3CCNC3=O)c(Cl)c2)cc1 [23c] when tested with Human Recombinant Cathepsin B (Homo sapiens, UniProt P07858) stands at 0.104

Tested on Human Recombinant Cathepsin B (Homo sapiens, UniProt P07858): COc1cccc(-c2ccc(C(=O)N[C@@H](CC3CCCCC3)C(=O)N[C@H](C#N)C[C@@H]3CCNC3=O)c(Cl)c2)c1 [23d] . Observed IC50: 0.137

###

systemTested: recombinant M^Pro (Severe acute respiratory syndrome coronavirus 2, UniProt P0DTD1)
experimentalDetails: SARS-CoV-2 Mpro screening and IC50 determination (QS1 fluorogenic substrate, Drag assay)
Type: biochemical
cond: recombinant M^Pro, 20 μM QS1 (Ac-Abu-Tle-Leu-Gln-ACC) substrate; Table 1; read-out: M^Pro IC50
Exercise: state measured pIC50 for each of the compounds provided.
Please treat pIC50 as minus the base-10 logarithm of the molar concentration.

Entry CC(C)C[C@@H](NC(=O)c1ccc(-c2ccc(Cl)cc2)cc1)C(=O)N[C@H](C#N)C[C@@H]1CCNC1=O [12a] — recorded pIC50 = 5.49

For record CC(C)C[C@@H](NC(=O)c1ccc(-c2ccc(F)nc2)cc1)C(=O)N[C@H](C#N)C[C@@H]1CCNC1=O [12c] the listed pIC50 is 5.23

# pIC50 of CCC[C@H](NC(=O)c1ccc(-c2cncc(Cl)c2)cc1)C(=O)N[C@H](C#N)C[C@@H]1CCNC1=O [12h] = 5.05

Just so you know, measured pIC50 for CC(C)C[C@H](NC(=O)c1ccc(-c2ccc(F)cc2)cc1)C(=O)N[C@H](C#N)C[C@@H]1CCNC1=O came out at 6.07

Entry CCC[C@H](NC(=O)c1ccc(-c2ccc(OC)c(OC)c2)cc1)C(=O)N[C@H](C#N)C[C@@H]1CCNC1=O [12g] — recorded pIC50 = 5.02

The reported pIC50 of the compound CCOc1ccc(-c2ccc(C(=O)N[C@@H](CC(C)C)C(=O)N[C@H](C#N)C[C@@H]3CCNC3=O)cc2)cc1F was 6.14

Origin of values: paper PMC12516390
